Source: patent US20250018014A1

target: ΔCTD_Reg1 (amino acids 1 to 546 of human Regnase-1) phosphorylation by IKKβ (Homo sapiens, UniProt Q5D1E8); construct: made in house; host or cells: Expi293 cells; assay: Regnase-1 phosphorylation inhibition by compounds (AlphaScreen), IKKβ, CTD-deficient Regnase-1; type: biochemical; conditions: Table 14; phosphorylation by IKKβ; read-out: Phosphorylation inhibition ΔCTD_Reg1, 50% inhibition concentration (IKKβ)
Sequence (Q5D1E8 1-546, stated change not applied): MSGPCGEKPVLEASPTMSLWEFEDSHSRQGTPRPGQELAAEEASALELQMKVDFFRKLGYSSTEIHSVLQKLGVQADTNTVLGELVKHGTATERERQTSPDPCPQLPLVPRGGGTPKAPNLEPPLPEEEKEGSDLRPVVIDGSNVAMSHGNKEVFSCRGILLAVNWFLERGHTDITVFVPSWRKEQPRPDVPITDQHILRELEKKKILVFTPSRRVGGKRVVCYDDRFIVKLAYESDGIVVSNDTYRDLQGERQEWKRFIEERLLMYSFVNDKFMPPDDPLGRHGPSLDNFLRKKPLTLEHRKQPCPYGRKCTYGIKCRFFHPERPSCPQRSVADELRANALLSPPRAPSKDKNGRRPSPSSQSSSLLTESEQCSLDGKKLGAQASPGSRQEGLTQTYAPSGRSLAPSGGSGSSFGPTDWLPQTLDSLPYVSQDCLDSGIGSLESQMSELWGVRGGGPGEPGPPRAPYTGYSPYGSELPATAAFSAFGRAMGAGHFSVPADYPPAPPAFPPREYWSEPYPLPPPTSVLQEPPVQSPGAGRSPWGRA
Residues, ends and D or L forms follow the SMILES beside them.
quantityName: IC50

molecule | IC50
CC[C@H](C)[C@@H]1NC(=O)[C@H](CC(=O)O)NC(=O)[C@H](C)N(C)C(=O)C[C@@H](C(=O)N2CCCC2)NC(=O)[C@H](Cc2c[nH]c3ccccc23)NC(=O)[C@H](CC(=O)O)NC(=O)[C@H](Cc2c[nH]c3ccccc23)NC(=O)[C@H](Cc2ccc(O)cc2)NC(=O)[C@H](CC(=O)O)NC(=O)[C@H](Cc2ccccc2)NC(=O)[C@H](Cc2c[nH]c3ccccc23)NC1=O [PP17] (HELM PEPTIDE1{[meA].D.I.W.F.D.Y.W.D.W.D.[C1CCN([*:1])C1]}$PEPTIDE1,PEPTIDE1,1:R1-11:R3$$$V2.0) | 300 nM

### Prompt Requested read-out: IC50. Entry: CC[C@H](C)[C@@H]1NC(=O)[C@H](CCCCN)NC(=O)[C@H](Cc2ccc(O)cc2)NC(=O)[C@H](Cc2c[nH]c3ccccc23)NC(=O)[C@H](CO)NC(=O)[C@H](CO)NC(=O)[C@H]([C@@H](C)O)NC(=O)[C@@H]2CCCN2C(=O)[C@@H](C)N(C)C(=O)C[C@@H](C(=O)N2CCCC2)NC(=O)[C@H](Cc2c[nH]c3ccccc23)NC1=O [PP23] (HELM PEPTIDE1{[C[C@H](C(=O)[*:2])N(C)[*:1]].P.T.S.S.W.Y.K.I.W.D.[C1CCN([*:1])C1]}$PEPTIDE1,PEPTIDE1,1:R1-11:R3$$$V2.0)
### Response > 62100 nM
